Provenance of the data: patent US20220025021A1

# targetSystem: HIV-1 Env of pseudovirus BB1012-11.TC21 (HIV-1)
# experimentNotes: cell-based or functional assay
measuredParameter: neutralization IC50 (µg/mL)
Give the value in µg/mL but do not write µg/mL after it.

Task: Give the measured neutralization IC50 of MS-79 (antibody, V domains shown) VH: QVQLVQSGPEVRKPGTSVKVSCKAPGNTLKTYDLHWVRSVPGQGLQWMGWISHEGDKKVIVERFKAKVTITWDRSTNTAYLQLSGLTSGDTAVYYCAKGSKHRLRDYALYDDDGALNWAVDVDYLSNLEFWGQGTAVTVSS VL: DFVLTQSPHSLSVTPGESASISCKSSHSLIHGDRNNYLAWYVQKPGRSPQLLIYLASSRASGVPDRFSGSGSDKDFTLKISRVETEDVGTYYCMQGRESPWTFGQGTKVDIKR .
Output: 0.019

Task: Give the measured neutralization IC50 of MS-82 (antibody, V domains shown) VH: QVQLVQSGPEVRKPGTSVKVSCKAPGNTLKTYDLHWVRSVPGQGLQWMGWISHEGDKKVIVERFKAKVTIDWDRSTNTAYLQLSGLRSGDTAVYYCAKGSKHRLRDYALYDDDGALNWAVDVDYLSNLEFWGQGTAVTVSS VL: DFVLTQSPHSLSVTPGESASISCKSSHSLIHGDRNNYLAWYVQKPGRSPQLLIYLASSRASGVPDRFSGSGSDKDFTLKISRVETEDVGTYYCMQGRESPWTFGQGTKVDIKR .
Output: 0.023

Task: Give the measured neutralization IC50 of MS-84 (antibody, V domains shown) VH: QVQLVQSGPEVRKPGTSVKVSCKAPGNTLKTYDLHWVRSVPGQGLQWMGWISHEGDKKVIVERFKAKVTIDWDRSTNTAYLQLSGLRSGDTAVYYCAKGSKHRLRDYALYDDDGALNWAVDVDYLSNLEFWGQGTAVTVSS VL: DFVLTQSPLSLPVTPGEPASISCKSSHSLIHGDRNNYLAWYVQKPGQSPQLLIYLASSRASGVPDRFSGSGSDKDFTLKISRVEAEDVGVYYCMQGRESPWTFGQGTKVDIKR .
Output: 0.019

Task: Give the measured neutralization IC50 of MS-77 (antibody, V domains shown) VH: QVQLVQSGPEVRKPGTSVKVSCKAPGNTFKTYDLHWVRSVPGQGLQWMGWISHEGDKKVIVERFKAKVTIDWDRSTNTAYLQLSGLTSGDTAVYYCAKGSKHRLRDYALYDDDGALNWAVDVDYLSNLEFWGQGTAVTVSS VL: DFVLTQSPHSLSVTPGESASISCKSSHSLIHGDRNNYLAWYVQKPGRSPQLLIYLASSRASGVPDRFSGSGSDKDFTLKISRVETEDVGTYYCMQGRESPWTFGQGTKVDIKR .
Output: 0.023

Task: Give the measured neutralization IC50 of MS-92 (antibody, V domains shown) VH: QVQLVQSGPEVRKPGTSVKVSCKAPGNTLKTYDLHWVRSVPGQGLEWMGWISHEGDKKVIVERFKAKVTIDRDRSTNTAYLQLSGLRSGDTAVYYCAKGSKHRLRDYALYDDDGALNWAVDVDYLSNLEFWGQGTAVTVSS VL: DIVLTQSPHSLSVTPGESASISCKSSHSLIHGDRNNYLAWYVQKPGRSPQLLIYLASSRASGVPDRFSGSGSDKDFTLKISRVETEDVGTYYCMQGRESPWTFGQGTKVDIKR .
Output: 0.029

Task: Give the measured neutralization IC50 of MS-80 (antibody, V domains shown) VH: QVQLVQSGPEVRKPGTSVKVSCKAPGNTLKTYDLHWVRSVPGQGLQWMGWISHEGDKKVIVERFKAKVTIDRDRSTNTAYLQLSGLTSGDTAVYYCAKGSKHRLRDYALYDDDGALNWAVDVDYLSNLEFWGQGTAVTVSS VL: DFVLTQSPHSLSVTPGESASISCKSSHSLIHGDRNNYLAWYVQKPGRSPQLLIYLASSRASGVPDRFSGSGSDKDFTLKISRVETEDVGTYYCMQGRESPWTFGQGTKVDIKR .
Output: 0.02

Task: Give the measured neutralization IC50 of MS-87 (antibody, V domains shown) VH: QVQLVQSGPEVRKPGTSVKVSCKAPGNTLKTYDLHWVRSVPGQGLQWMGWISHEGDKKVIVERFKAKVTITRDRSTNTAYLQLSGLTSGDTAVYYCAKGSKHRLRDYALYDDDGALNWAVDVDYLSNLEFWGQGTAVTVSS VL: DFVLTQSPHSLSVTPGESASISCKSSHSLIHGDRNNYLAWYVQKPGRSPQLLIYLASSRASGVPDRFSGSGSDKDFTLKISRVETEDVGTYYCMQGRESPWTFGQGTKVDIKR .
Output: 0.023

Task: Give the measured neutralization IC50 of MS-91 (antibody, V domains shown) VH: QVQLVQSGPEVRKPGTSVKVSCKASGYTLKTYDLHWVRSVPGQGLQWMGWISHEGDKKVIVERFKAKVTIDWDRSTNTAYLQLSGLTSGDTAVYYCAKGSKHRLRDYALYDDDGALNWAVDVDYLSNLEFWGQGTAVTVSS VL: DFVLTQSPLSLSVTPGESASISCKSSHSLIHGDRNNYLAWYVQKPGRSPQLLIYLASSRASGVPDRFSGSGSDTDFTLKISRVETEDVGTYYCMQGRESPWTFGQGTKVDIKR .
Output: 0.037

Task: Give the measured neutralization IC50 of MS-70 (antibody, V domains shown) VH: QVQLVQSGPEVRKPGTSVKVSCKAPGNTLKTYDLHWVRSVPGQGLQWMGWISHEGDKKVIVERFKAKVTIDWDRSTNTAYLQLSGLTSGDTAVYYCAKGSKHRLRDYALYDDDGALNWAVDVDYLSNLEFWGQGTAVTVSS VL: DFVLTQSPHSLSVTPGESASISCKSSHSLIHGDRNNYLAWYVQKPGQSPQLLIYLASSRASGVPDRFSGSGSDKDFTLKISRVETEDVGTYYCMQGRESPWTFGQGTKVDIKR .
Output: 0.021
